Source of measurements: ChEMBL document CHEMBL1136464

Some compounds, each annotated with its measured MIC.
# System: Enterococcus faecalis
# methodDescription: Antibacterial activity against Enterococcus faecalis ATCC 6569 at 10 % serum
# Format: functional
# recordedConditions: ATCC 6569, Serum

[
  {
    "itemSmiles": "CCCCCCCCCC(=O)N[C@@H](Cc1c[nH]c2ccccc12)C(=O)N[C@H](CC(N)=O)C(=O)N[C@@H](CCO)C(=O)N[C@@H]1C(=O)NCC(=O)N[C@@H](CCCNCc2ccc(C#N)cc2)C(=O)N[C@@H](CC(=O)O)C(=O)N[C@H](C)C(=O)N[C@@H](CC(=O)O)C(=O)NCC(=O)N[C@H](CO)C(=O)N[C@@H]([C@H](C)CC(=O)O)C(=O)N[C@@H](CC(=O)c2ccccc2N)C(=O)O[C@@H]1C",
    "assayTarget": "Enterococcus faecalis",
    "MIC, µg/mL": 6.25
  },
  {
    "itemSmiles": "CCCCCCCCCC(=O)N[C@@H](Cc1c[nH]c2ccccc12)C(=O)N[C@H](CC(N)=O)C(=O)N[C@@H](CCO)C(=O)N[C@@H]1C(=O)NCC(=O)N[C@@H](CCCNCc2ccc(C(=O)N3CCN(c4ccccc4)CC3)cc2)C(=O)N[C@@H](CC(=O)O)C(=O)N[C@H](C)C(=O)N[C@@H](CC(=O)O)C(=O)NCC(=O)N[C@H](CO)C(=O)N[C@@H]([C@H](C)CC(=O)O)C(=O)N[C@@H](CC(=O)c2ccccc2N)C(=O)O[C@@H]1C",
    "assayTarget": "Enterococcus faecalis",
    "MIC, µg/mL": 6.25
  }
]

---

# System: Enterococcus faecium
# methodDescription: Antibacterial activity against Enterococcus faecium ATCC 49452 at 0 % serum
# Type: functional
Some compounds, each annotated with its measured MIC.
recordedMetric: MIC

[
  {
    "itemSmiles": "CCCCCCCCCC(=O)N[C@@H](Cc1c[nH]c2ccccc12)C(=O)N[C@H](CC(N)=O)C(=O)N[C@@H](CCO)C(=O)N[C@@H]1C(=O)NCC(=O)N[C@@H](CCCNCc2ccc(OCc3ccccc3)c(Cl)c2)C(=O)N[C@@H](CC(=O)O)C(=O)N[C@H](C)C(=O)N[C@@H](CC(=O)O)C(=O)NCC(=O)N[C@H](CO)C(=O)N[C@@H]([C@H](C)CC(=O)O)C(=O)N[C@@H](CC(=O)c2ccccc2N)C(=O)O[C@@H]1C",
    "testResult": "0.39 µg/mL"
  },
  {
    "itemSmiles": "CCCCCCCCCC(=O)N[C@@H](Cc1c[nH]c2ccccc12)C(=O)N[C@H](CC(N)=O)C(=O)N[C@@H](CCO)C(=O)N[C@@H]1C(=O)NCC(=O)N[C@@H](CCCNCc2cccc(F)c2)C(=O)N[C@@H](CC(=O)O)C(=O)N[C@H](C)C(=O)N[C@@H](CC(=O)O)C(=O)NCC(=O)N[C@H](CO)C(=O)N[C@@H]([C@H](C)CC(=O)O)C(=O)N[C@@H](CC(=O)c2ccccc2N)C(=O)O[C@@H]1C",
    "testResult": "12.5 µg/mL"
  },
  {
    "itemSmiles": "CCCCCCCCCC(=O)N[C@@H](Cc1c[nH]c2ccccc12)C(=O)N[C@H](CC(N)=O)C(=O)N[C@@H](CCO)C(=O)N[C@@H]1C(=O)NCC(=O)N[C@@H](CCCNCc2ccccc2[N+](=O)[O-])C(=O)N[C@@H](CC(=O)O)C(=O)N[C@H](C)C(=O)N[C@@H](CC(=O)O)C(=O)NCC(=O)N[C@H](CO)C(=O)N[C@@H]([C@H](C)CC(=O)O)C(=O)N[C@@H](CC(=O)c2ccccc2N)C(=O)O[C@@H]1C",
    "testResult": "12.5 µg/mL"
  },
  {
    "itemSmiles": "CCCCCCCCCC(=O)N[C@@H](Cc1c[nH]c2ccccc12)C(=O)N[C@H](CC(N)=O)C(=O)N[C@@H](CCO)C(=O)N[C@@H]1C(=O)NCC(=O)N[C@@H](CCCNCc2ccc(N3CCN(Cc4ccccc4)CC3)cc2)C(=O)N[C@@H](CC(=O)O)C(=O)N[C@H](C)C(=O)N[C@@H](CC(=O)O)C(=O)NCC(=O)N[C@H](CO)C(=O)N[C@@H]([C@H](C)CC(=O)O)C(=O)N[C@@H](CC(=O)c2ccccc2N)C(=O)O[C@@H]1C",
    "testResult": "12.5 µg/mL"
  }
]
